System: Enterococcus faecalis
Assay Overview: Antibacterial activity against Streptococcus faecalis MGH-2 assessed as growth inhibition
Format: functional
Metric: MIC

>>> result("Nc1nc(N)c2cc(S(=O)(=O)c3ccc4ccccc4c3)ccc2n1")
"> 25 µg/mL"
>>> result("Nc1nc(N)c2cc([S+]([O-])c3cccc(-c4ccccc4)c3)ccc2n1 (stereo not given)")
"< 0.25 µg/mL"
>>> result("Nc1nc(N)c2c(Cl)c([S+]([O-])c3ccc4ccccc4c3)ccc2n1 (stereo not given)")
"< 0.25 µg/mL"
>>> result("Cc1c([S+]([O-])c2ccc3ccccc3c2)ccc2nc(N)nc(N)c12 (stereo not given)")
"< 0.25 µg/mL"
>>> result("Nc1nc(N)c2c(Cl)c([S+]([O-])c3ccc(F)cc3)ccc2n1 (stereo not given)")
"< 0.25 µg/mL"

---

Tested on: Enterococcus faecalis
Assay Overview: Antibacterial activity against Streptococcus faecalis MGH-2 assessed as growth inhibition
Format: functional
Metric: MIC

>>> result("Nc1nc(N)c2cc([S+]([O-])c3c(F)c(F)cc(F)c3F)ccc2n1 (stereo unspecified)")
"< 0.25 mg/L"
>>> result("Nc1nc(N)c2cc([S+]([O-])c3ccc(Cl)c(Cl)c3)ccc2n1 (stereo unspecified)")
"< 0.25 mg/L"
>>> result("COc1cccc(S(=O)(=O)c2ccc3nc(N)nc(N)c3c2)c1")
"< 0.25 mg/L"
>>> result("Nc1nc(N)c2cc([S+]([O-])c3cccc4ccccc34)ccc2n1 (stereo unspecified)")
"> 25 mg/L"
>>> result("Nc1nc(N)c2cc(S(=O)(=O)c3cccc4ccccc34)ccc2n1")
"> 25 mg/L"
>>> result("Nc1nc(N)c2cc([S+]([O-])c3cccc(C(F)(F)F)c3)ccc2n1 (stereo unspecified)")
"< 0.25 mg/L"
>>> result("Nc1nc(N)c2cc([S+]([O-])c3ccccc3-c3ccccc3)ccc2n1 (stereo unspecified)")
"< 0.25 mg/L"
>>> result("Nc1nc(N)c2cc(S(=O)(=O)c3ccc(Cl)c(Cl)c3)ccc2n1")
"< 0.25 mg/L"
>>> result("Nc1nc(N)c2c(Cl)c([S+]([O-])c3ccccc3Cl)ccc2n1 (stereo unspecified)")
"< 0.25 mg/L"
>>> result("Nc1nc(N)c2cc([S+]([O-])c3ccc4ccccc4c3)ccc2n1 (stereo unspecified)")
"< 0.25 mg/L"
>>> result("Nc1nc(N)c2cc(S(=O)(=O)c3cc(Cl)cc(Cl)c3)ccc2n1")
"1 mg/L"

---

Assay Overview: Toxicity in chloroquine-sensitive, pyrimethamine-resistant Plasmodium falciparum Malayan Camp CH/Q infected in Aotus monkey compound treated for 7 days
Test Context: in vivo
Metric: MTD at 168 h

>>> result("CCc1nc(N)nc(N)c1-c1ccc(Cl)cc1 [PYRIMETHAMINE]")
"> 2.5 mg/kg"

---

Property: Activity; scope: individual compounds
System: Plasmodium falciparum
Assay Overview: Antimalarial activity against chloroquine-sensitive, pyrimethamine-resistant Plasmodium falciparum Malayan Camp CH/Q infected in Aotus monkey assessed as dose required to >50% cures compound treated for 7 days
Type: functional
Metric: Activity (mg/kg)

>>> measured_number("C=C[C@H]1CN2CC[C@H]1C[C@H]2[C@H](O)c1ccnc2ccc(OC)cc12.Cl [QUININE HYDROCHLORIDE]")
80
>>> measured_number("CN(C)c1ccc(Sc2ccc3nc(N)nc(N)c3c2)cc1")
2.5
>>> measured_number("CCN(CC)CCCC(C)Nc1ccnc2cc(Cl)ccc12 (centres undefined)")
5
>>> measured_number("Nc1nc(N)c2cc(S(=O)(=O)c3cccc(C(F)(F)F)c3)ccc2n1")
1.56
>>> measured_number("Nc1nc(N)c2cc(Sc3ccc(Cl)cc3)ccc2n1")
5
>>> measured_number("Nc1nc(N)c2cc(S(=O)(=O)c3ccc4ccccc4c3)ccc2n1")
0.39
>>> measured_number("Nc1nc(N)c2cc([S+]([O-])c3ccc4ccccc4c3)ccc2n1 (centres undefined)")
0.78
>>> measured_number("Nc1nc(N)c2cc(Sc3cccc(C(F)(F)F)c3)ccc2n1")
0.39
>>> measured_number("Nc1nc(N)c2cc(Sc3ccc4ccccc4c3)ccc2n1")
3.125
